Test system: NCI-H460 lung
Assay Protocol: NCI-60 one-dose screen, 48 h
Settings: 10 µM unless noted
The panel holds about 83,000 compounds, 20% with a hit somewhere; the sample as a whole holds those more often. The source made the active and inactive calls. Rule for the calls: active = growth percent below 10; inactive = the rest.
Returns: one label drawn from active, inactive

Known results for molecules:
>  <Molecule>
CCSc1nc(Cl)c(C#N)c(-c2ccc(F)cc2)n1

>  <Label Class>
inactive

$$$$
>  <Molecule>
COc1ccc(/C=C/C(=O)Nc2ncnc3nc[nH]c23)cc1

>  <Label Class>
inactive

$$$$
>  <Molecule>
CC(C)Cc1cc(CNC(=O)C2[C@H]3CN(C(=O)c4ccccc4)C[C@@H]23)nn1-c1ccccc1 (stereo partly drawn)

>  <Label Class>
inactive

$$$$

Request: What classification did COc1ccc(-n2cc(COc3ccc4c5ccnc(C)c5n(CC(C)C)c4c3)nn2)cc1 end up with in this test?
Result: inactive

Request: How did this test come out for C=C1C(=O)O[C@H]2[C@H]1CC/C(COC(=O)NCC(=O)Nc1ccc(OC)c(C(N)=O)c1O)=C\CC[C@@]1(C)O[C@@H]21 ?
Result: inactive

Request: Could you kindly confirm the outcome this assay logged for CCOC(=O)/C=C1\SC(=Nc2ccc(C#N)cc2)N(CCN2C(=O)/C(=C/C(=O)OCC)SC2=Nc2ccc(C#N)cc2)C1=O ?
Result: inactive

Request: // outcome(item) with item = C/C(=C\c1cnc(C)s1)[C@@H]1C[C@@H]2O[C@@H]2CCC[C@H](C)[C@H](O)[C@@H](C)C(=O)C(C)(C)[C@@H](O)CC(=O)O1
Result: inactive
